Tested on: ATF4 luciferase reporter
Assay: ATF4-Luc assay in HEK293T cells carrying the ATF4 luciferase reporter (in vitro model of VWMD)
Format: cell-based, human
Settings: Homo sapiens, HEK-293T, 1 μg/mL tunicamycin, 7 hours, luminescence (One Glo)
pEC50: −log10 of the molar value.
Parameter pEC50: see the listing below.

INSERT INTO results (compound, recorded_measurement) VALUES
  ('COc1ccc(CNC(=O)C23CC(NC(=O)COc4ccc(Cl)c(F)c4)(C2)C3)cc1OC', '< 5.70'),
  ('CC(NC(=O)C12CCC(NC(=O)COc3ccc(Cl)c(F)c3)(CC1)CC2O)c1cccnc1 (stereo not shown)', '< 5.70'),
  ('O=C(COc1ccc(Cl)c(F)c1)NC12CC(C(=O)NCc3ccno3)(C1)C2', '< 5.70'),
  ('Cc1cnc(CNC(=O)C23CCC(NC(=O)COc4ccc(Cl)c(F)c4)(CC2)CC3O)cn1 (stereo not shown)', '5.70 to 6.00'),
  ('O=C(COc1ccc(Cl)c(F)c1)NC12CC(C(=O)NCc3cccc(F)c3)(C1)C2', '< 5.70'),
  ('COc1ccc(CNC(=O)C23CCC(NC(=O)COc4ccc(Cl)c(F)c4)(CC2)CC3O)cc1 (stereo not shown)', '> 6.60'),
  ('Cc1cnc(CNC(=O)C23CC(NC(=O)COc4ccc(Cl)c(F)c4)(C2)C3)cn1', '< 5.70'),
  ('Cn1nccc1CNC(=O)C12CC(NC(=O)COc3ccc(Cl)c(F)c3)(C1)C2', '< 5.70');

What does the record list as pEC50 for O=C(COc1ccc(Cl)c(F)c1)NC12CC(C(=O)NCCc3ccc(C(F)(F)F)cn3)(C1)C2 ?
< 5.70

Quick one: pEC50 of Cc1noc(CNC(=O)C23CC(NC(=O)COc4ccc(Cl)c(F)c4)(C2)C3)n1 ?
< 5.70

Query: pEC50; subject: O=C(COc1ccc(Cl)c(F)c1)NC12CCC(C(=O)NCc3ccc(C(F)(F)F)cn3)(CC1)[C@H](O)C2 (single isomer, unassigned)
> 6.60

Suppose we examine the compound COc1c(F)cc(CNC(=O)C23CC(NC(=O)COc4ccc(Cl)c(F)c4)(C2)C3)cc1F ; what pEC50 value has been reported?
< 5.70

Need pEC50 of O=C(COc1ccc(Cl)c(F)c1)NC12CC(C(=O)NCc3ccc(F)cc3)(C1)C2 , thanks.
< 5.70

* * *

System: ATF4 luciferase reporter
Experiment: ATF4-Luc assay in HEK293T cells carrying the ATF4 luciferase reporter (in vitro model of VWMD)
Assay type: cell-based, human
Conditions: Homo sapiens, HEK-293T, 1 μg/mL tunicamycin, 7 hours, luminescence (One Glo)
Description: In order to test exemplary compounds of the invention in a cellular context, a stable VWMD cell line was first constructed. […] HEK293T cells carrying the ATF4 luciferase reporter were plated on polylysine coated 384-well plates (Greiner Bio-one) at 30,000 cells per well. […] Luminescence was measured using One Glo (Promega) as specified by the manufacturer. […]
Recorded EC50 for the following compounds

Observe how each entry below is paired with its result.
INSERT INTO measurements (compound, experimental_readout, recorded_measurement) VALUES
  ('CC(Cc1ccc(F)cc1)NC(=O)C12CC(NC(=O)COc3ccc(Cl)c(F)c3)(C1)C2 (stereo not drawn) [Compound 171]', 'EC50', '1000 to 2000 nM'),
  ('O=C(COc1ccc(Cl)c(F)c1)NC12CC(C(=O)NCc3cccnn3)(C1)C2 [Compound 205]', 'EC50', '> 2000 nM'),
  ('O=C(COc1ccc(Cl)c(F)c1)NC12CC(C(=O)NCc3ccc(OC(F)(F)F)cc3)(C1)C2 [Compound 225]', 'EC50', '> 2000 nM'),
  ('O=C(COc1ccc(Cl)c(F)c1)NC12CC(C(=O)NCc3ccc(Cl)c(Cl)c3)(C1)C2 [Compound 241]', 'EC50', '> 2000 nM'),
  ('Cc1ccc(CNC(=O)C23CCC(NC(=O)COc4ccc(Cl)c(F)c4)(CC2)CC3O)nc1 (stereo not drawn) [Compound 142]', 'EC50', '500 to 1000 nM'),
  ('O=C(COc1ccc(Cl)c(F)c1)NC12CC(C(=O)NCCc3ccccn3)(C1)C2 [Compound 153]', 'EC50', '> 2000 nM'),
  ('Cc1cc(C)c(CNC(=O)C23CCC(NC(=O)COc4ccc(Cl)c(F)c4)(CC2)CC3O)cn1 (stereo not drawn) [Compound 111]', 'EC50', '> 2000 nM'),
  ('Cc1ccc(OCCNC(=O)C23CC(NC(=O)COc4ccc(Cl)c(F)c4)(C2)C3)cc1C [Compound 158]', 'EC50', '< 250 nM'),
  ('COc1cccc(CNC(=O)C23CCC(NC(=O)COc4ccc(Cl)c(F)c4)(CC2)CC3O)c1 (stereo not drawn) [Compound 127]', 'EC50', '1000 to 2000 nM'),
  ('Cc1noc(C)c1CCCNC(=O)C12CC(NC(=O)COc3ccc(Cl)c(F)c3)(C1)C2 [Compound 220]', 'EC50', '> 2000 nM');

Next item in the queue.
# get_value(readout='EC50', item= Cc1ccc(CNC(=O)C23CC(NC(=O)COc4ccc(Cl)c(F)c4)(C2)C3)cn1 [Compound 155] )
> 2000 nM
